Each item that follows carries a reported protein stability index.
B1: SMTNL2 (parent)
chain: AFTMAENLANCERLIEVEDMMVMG

Variants of: B1
experiment-summary: protein stability index of a GFP-peptide fusion (GPS, HEK-293T) (PSI 1-6); higher = more stable;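 also: lentivirally expressed fusions sorted by FACS into six bins by GFP to DsRed ratio, PSI derived from sequencing read proportions per bin multiplied by bin number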
condition-details: c terminus: a fixed tail appended

Task item: Requested field: protein stability index. Item: AFTMAENLANCERLIEREDMMVMG [V17R]
Reply: 2.88

Task item: // next record AFTMAENLANCERLIEVEDMPVMG [M21P]
Reply: 3.27

Task item: // next record AFTMEENLANCERLIEVEDMMVMG [A5E]
Reply: 4.16

Task item: // next record AITMAENLANCERLIEVEDMMVMG [F2I]
Reply: 2.27

Task item: // next record AFTMRENLANCERLIEVEDMMVMG [A5R]
Reply: 1.93
